target: K18 tau fragment bearing the P301L mutation (K18PL) (Homo sapiens, UniProt P10636, P618L); experiment: Heparin-induced tau K18PL fibrillization assay monitored by thioflavine-T
Sequence (P10636 561-689 P618L): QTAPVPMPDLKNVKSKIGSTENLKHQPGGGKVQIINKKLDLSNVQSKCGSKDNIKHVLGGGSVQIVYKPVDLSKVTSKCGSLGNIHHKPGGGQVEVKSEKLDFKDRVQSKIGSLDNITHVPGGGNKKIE
pIC50: −log10 of the molar value.
Reported pIC50 by item:
reported_endpoint: pIC50

molecule=CNC(=O)c1nn(-c2ccc(Cl)cc2)c(=O)c2c(N)scc12 reported_endpoint=pIC50 data_value=4.66
molecule=CC(C)NC(=O)c1nn(-c2ccc(Br)cc2)c(=O)c2c(N)scc12 reported_endpoint=pIC50 data_value=5.51
molecule=Nc1scc2c(C(=O)NC3CC3)nn(-c3ccc(Cl)cc3)c(=O)c12 reported_endpoint=pIC50 data_value=5.09
molecule=CCOC(=O)c1nn(-c2ccc(Cl)cc2)c(=O)c2c(N)scc12 reported_endpoint=pIC50 data_value=5.42
molecule=CN(C)C(=O)c1nn(-c2ccc(Cl)cc2)c(=O)c2c(N)scc12 reported_endpoint=pIC50 data_value=4.69
molecule=CC(C)NC(=O)c1nn(-c2ccc(Cl)cc2)c(=O)c2c(N)scc12 reported_endpoint=pIC50 data_value=5.23
molecule=CCN(C)C(=O)c1nn(-c2ccc(Cl)cc2)c(=O)c2c(N)scc12 reported_endpoint=pIC50 data_value=4.49
